# TARGET OR TEST SYSTEM: T1, canine renal PTH/PTHrP receptor (canine, UniProt Q9TU31 29-595)
# T1 construct: whole, on cells; Native receptor in renal cortical membranes of adult mongrel dogs, not intact cells; also called canine renal receptors; receptor in canine renal cortical membranes (CRCM)
# T1 sequence (looked up): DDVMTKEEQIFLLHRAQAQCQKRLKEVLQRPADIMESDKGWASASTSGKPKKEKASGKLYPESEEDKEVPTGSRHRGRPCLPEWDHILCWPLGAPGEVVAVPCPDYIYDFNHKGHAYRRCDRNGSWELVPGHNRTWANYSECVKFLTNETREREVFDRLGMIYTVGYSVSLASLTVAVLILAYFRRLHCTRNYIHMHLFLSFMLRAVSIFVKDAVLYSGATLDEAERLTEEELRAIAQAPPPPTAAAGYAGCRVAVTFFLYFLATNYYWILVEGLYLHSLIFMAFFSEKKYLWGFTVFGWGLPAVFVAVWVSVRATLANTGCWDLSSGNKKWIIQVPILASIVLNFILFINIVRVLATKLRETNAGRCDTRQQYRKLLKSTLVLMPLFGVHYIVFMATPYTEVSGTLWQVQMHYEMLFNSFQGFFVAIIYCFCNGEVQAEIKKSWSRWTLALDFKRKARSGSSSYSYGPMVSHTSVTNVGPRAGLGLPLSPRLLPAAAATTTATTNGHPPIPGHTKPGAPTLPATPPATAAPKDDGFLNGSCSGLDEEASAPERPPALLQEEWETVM
# ASSAY TEXT: competition of 125I-[Tyr36]PTHrP-(1-36)amide binding, canine renal cortical membranes, 20 C; printed as binding dissociation constant, heterologous competitor (Ki from IC50 by paragraph 214)
Non-standard residues stand in square brackets, D forms with d. No end group written: not given here. Nle = CCCC[C@H](N)C(=O)O
QUANTITY: pKi
Please treat pKi as minus the base-10 logarithm of the molar concentration.

Field pKi (entry SVSEIQL[Nle]HNLGKHLNS[Nle]ERVEWLRKKLQDVHNY-NH2 (also called NNT-hPTH-(1-34); [Nle^8,18, Tyr^34]hPTH-(1-34)NH2) [[Nle^8,18,Tyr^34]hPTH-(1-34)amide] ) reads 8.07
